Every entry's value here was drawn from PubChem BioAssay AID588354.

Listing of recorded inhibition by entry.
measuredTarget: Nuclear receptor coactivator 1 (Homo sapiens)
method: SRC1 coactivator transcriptional activity inhibitors, primary screen, cell-based, luminescence (AID 588354);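 note: 0% = DMSO treated cells and 100% = gossypol at 36 µM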
statedConditions: HEK293 GAL4-SRC1 luciferase reporter, at 3.6 µM, stronger effect = higher value
The campaign covered roughly 360,000 compounds. About 430 (0.12%) were called active. Only a selection was taken, and actives are over-represented in it overall.
metricName: inhibition (%)

>>> reported("O=C(COC(=O)c1ccco1)Nc1ccc(Cl)cn1")
-10.8
>>> reported("CC1(C)CN(Cc2cccnc2)C(=O)[C@H]1CC(=O)Nc1ccc(Br)cc1")
-2.09
>>> reported("S=C(Cc1ccc(Cl)cc1)N1CCOCC1")
-5.3
>>> reported("Cc1ccc(NC(=O)CN2CCC3(O)CCCCC3C2c2ccc3c(c2)OCO3)c(C)c1 (stereo unspecified)")
5.71
>>> reported("CC1(NC(=O)CCS(=O)(=O)c2ccc(Cl)cc2)CCS(=O)(=O)C1 (stereo unspecified)")
-3.53
>>> reported("Cc1cccc(C(=O)N2CCCC(Nc3ccc(C(C)C)cc3)C2)n1 (stereo unspecified)")
1.61
